# Test system: Staphylococcus aureus
# measurement.notes: Concentration required for 90 percent inhibition of [14C]- pen-G binding to Staphylococcus aureus ATCC 25293 PBP3 75 KDa
assay.endpoint: Concentration

Below: 5 compounds and their reported Concentration.
CC1(C)S[C@@H]2[C@H](NC(=O)[C@H](CCCCN)c3ccccc3)C(=O)N2[C@H]1C(=O)O : > 100 µg/mL
CC(=O)NCCCC[C@@H](C(=O)N[C@@H]1C(=O)N2[C@@H]1SC(C)(C)[C@@H]2C(=O)O)c1ccccc1 : > 100 µg/mL
CC1(C)S[C@@H]2[C@H](NC(=O)[C@H](N)c3ccccc3)C(=O)N2[C@H]1C(=O)O : 0.1 µg/mL
CC1(C)S[C@@H]2[C@H](NC(=O)Cc3ccccc3)C(=O)N2[C@H]1C(=O)O : 0.1 µg/mL
CC(=O)NCCCC[C@H](C(=O)N[C@@H]1C(=O)N2[C@@H]1SC(C)(C)[C@@H]2C(=O)O)c1ccccc1 : > 100 µg/mL

Now for another entry.
query: Which Concentration is reported for this compound? CC1(C)S[C@@H]2[C@H](NC(=O)[C@@H](CCCCN)c3ccccc3)C(=O)N2[C@H]1C(=O)O
result: > 100 µg/mL

Values were extracted from ChEMBL document CHEMBL1151601.
